# Test system: DB (B-Cell Non-Hodgkin's Lymphoma)
# ASSAY DETAILS: Bliss excess, mean over the matrix (fraction); higher = more synergy
Give condition met when the value for Bliss excess is at least -0.01. Give condition not met when it is less.

COMPOUND: CN(CCO)CC[C@H](CSc1ccccc1)Nc1ccc(S(=O)(=O)NC(=O)c2ccc(N3CCC([C@@H](O)c4ccccc4-c4ccc(Cl)cc4)CC3)cc2)cc1S(=O)(=O)C(F)(F)F [AZD4320] + Cc1cc2ncnn2cc1Nc1ncc2c(n1)n(C1CCOCC1)c(=O)n2C [AZD7648] (first compound max 1 µM, 7x7, partner max 10 µM)
CLASSIFICATION: condition not met
--
COMPOUND: CN(CCO)CC[C@H](CSc1ccccc1)Nc1ccc(S(=O)(=O)NC(=O)c2ccc(N3CCC([C@@H](O)c4ccccc4-c4ccc(Cl)cc4)CC3)cc2)cc1S(=O)(=O)C(F)(F)F [AZD4320] + C[C@@H](Nc1cc(F)cc(F)c1)c1cc(C(=O)N(C)C)cc2c(=O)cc(N3CCOCC3)oc12 [AZD8186] (first compound max 1 µM, 7x7, partner max 3 µM)
CLASSIFICATION: condition met
--
COMPOUND: N#Cc1cnc(Nc2cc(NC[C@H]3CNCCO3)c(C(F)(F)F)cn2)cn1 [SRA737] + Nc1ccn([C@@H]2O[C@H](CO)[C@@H](O)C2(F)F)c(=O)n1 [Gemcitabine] (first compound max 10 µM, 7x7, partner max 0.3 µM)
CLASSIFICATION: condition met
--
COMPOUND: Cc1c2c(nn1C)CSCc1cc(n(C)n1)CSc1cc(c3ccccc3c1)OCCCc1c(C(=O)O)n(C)c3c-2c(Cl)ccc13 [AZD5991] + Cc1cc2ncnn2cc1Nc1ncc2c(n1)n(C1CCOCC1)c(=O)n2C [AZD7648] (first compound max 1 µM, 7x7, partner max 10 µM)
CLASSIFICATION: condition met
--
COMPOUND: O=C(c1cc(Cc2n[nH]c(=O)c3ccccc23)ccc1F)N1CCN(C(=O)C2CC2)CC1 [Olaparib] + CN(CC[C@H](CSC1=CC=CC=C1)NC2=C(C=C(C=C2)S(=O)(=O)NC(=O)C3=CC=C(C=C3)N4CCC(CC4)[C@H](C5=CC=CC=C5C6=CC=C(C=C6)Cl)O)S(=O)(=O)C(F)(F)F)CCO [AZD4320] (first compound max 10 µM, 7x7, partner max 1 µM)
CLASSIFICATION: condition not met
--
COMPOUND: C[C@@H]1COCCN1c1cc(C2([S@](C)(=N)=O)CC2)nc(-c2ccnc3[nH]ccc23)n1 [AZD6738] + O=C(c1cc(Cc2n[nH]c(=O)c3ccccc23)ccc1F)N1CCN(C(=O)C2CC2)CC1 [Olaparib] (first compound max 10 µM, 7x7, partner max 10 µM)
CLASSIFICATION: condition not met

----------
# Tested on: KATOIII (Gastric Carcinoma)
# ASSAY DETAILS: combination Emax (second highest fraction inhibited in the dose matrix, 72 h); higher = more inhibition; extreme values may be limits of the assay

MOLECULE: Cc1c2c(nn1C)CSCc1cc(n(C)n1)CSc1cc(c3ccccc3c1)OCCCc1c(C(=O)O)n(C)c3c-2c(Cl)ccc13 [AZD5991] + CN(C)CCCOc1ccc(-c2ccc3ncc4c(c3c2)n(C2CCOCC2)c(=O)n4C)cn1 [AZD0156] (first compound max 1 µM, 7x7, partner max 1 µM)
combination Emax: 0.182
//
MOLECULE: COc1nnc2ccc(N3CCC(c4ccc(OCCN5CCN(C)C(=O)[C@H]5C)cc4)CC3)nn12 [AZD5153] + C[C@@H]1COCCN1C2=NC(=NC(=C2)C3(CC3)[S@](=N)(=O)C)C4=C5C=CNC5=NC=C4 [AZD6738] (first compound max 1 µM, 7x7, partner max 10 µM)
combination Emax: 0.553
//
MOLECULE: COc1cccc(OCCCN)c1-c1cc(Nc2cnc(C#N)cn2)n[nH]1 [Prexasertib] + C=CCn1c(=O)c2cnc(Nc3ccc(N4CCN(C)CC4)cc3)nc2n1-c1cccc(C(C)(C)O)n1 [AZD1775] (first compound max 1 µM, partner max 1 µM)
combination Emax: 0.55
//
MOLECULE: C[C@@H](Oc1cc(-c2cnn(C3CCNCC3)c2)cnc1N)c1c(Cl)ccc(F)c1Cl [Crizotinib] + Cn1cnc2c(F)c(Nc3ccc(Br)cc3Cl)c(C(=O)NOCCO)cc21 [Selumetinib] (first compound max 10 µM, 7x7, partner max 10 µM)
combination Emax: 0.588
//
MOLECULE: Cc1c2c(nn1C)CSCc1cc(n(C)n1)CSc1cc(c3ccccc3c1)OCCCc1c(C(=O)O)n(C)c3c-2c(Cl)ccc13 [AZD5991] + C1CN(CCC1(C(=O)N[C@@H](CCO)C2=CC=C(C=C2)Cl)N)C3=NC=NC4=C3C=CN4 [Capivasertib] (first compound max 1 µM, 7x7, partner max 3 µM)
combination Emax: 0.233
//
MOLECULE: O=C(c1cc(Cc2n[nH]c(=O)c3ccccc23)ccc1F)N1CCN(C(=O)C2CC2)CC1 [Olaparib] + Cc1c2c(nn1C)CSCc1cc(n(C)n1)CSc1cc(c3ccccc3c1)OCCCc1c(C(=O)O)n(C)c3c-2c(Cl)ccc13 [AZD5991] (first compound max 10 µM, 7x7, partner max 1 µM)
combination Emax: 0.356
//
MOLECULE: CN(CCO)CC[C@H](CSc1ccccc1)Nc1ccc(S(=O)(=O)NC(=O)c2ccc(N3CCC([C@@H](O)c4ccccc4-c4ccc(Cl)cc4)CC3)cc2)cc1S(=O)(=O)C(F)(F)F [AZD4320] + CS(=O)(=O)CCNCc1ccc(-c2ccc3ncnc(Nc4ccc(OCc5cccc(F)c5)c(Cl)c4)c3c2)o1 [Lapatinib] (first compound max 1 µM, 7x7, partner max 10 µM)
combination Emax: 0.586
